Attribution: ChEMBL document CHEMBL1150265

# ASSAY_TEXT: Metabolic stability in rat assessed as hepatic extraction
# Type: ADME, organism-based
# CONDITIONS_USED: in vivo, read-out: Stability
QUANTITY_MEASURED: hepatic extraction ratio

hepatic extraction ratio lookup needed for CC(C)c1nc(N(C)c2ncnn2C)nc(-c2ccc(F)cc2)c1/C=C/[C@@H](O)C[C@@H](O)CC(=O)[O-].[Na+] , thanks.
0.86

====

# ASSAY_TEXT: Cmax in po dosed healthy human
# Type: ADME, organism-based
# Set-up: route oral
# CONDITIONS_USED: in vivo
QUANTITY_MEASURED: Cmax (ng/mL)
Only the number, expressed in ng/mL, is required.

Cmax lookup needed for CC(C)c1nc(N(C)c2ncnn2C)nc(-c2ccc(F)cc2)c1/C=C/[C@@H](O)C[C@@H](O)CC(=O)[O-].[Na+] , thanks.
4.72
